All values here come from patent US20110245249A1.

# log p [c] per entry
# experimentDescription: logP by HPLC on reversed-phase columns (EEC Directive 79/831 Annex V.A8)
# Type: physicochemical
# conditionNotes: pH 7.8

{"columns": ["molecule", "endpointName", "endpointValue"],
 "data": [
  ["Clc1cnc(Nc2cccc(C3OCCO3)c2)nc1NC1CCC1 [Example 31]", "log p [c]", 3.23],
  ["Clc1cnc(Nc2cccc(C3OCC(C4CC4)CO3)c2)nc1NC1CCC1 (stereo not drawn) [Example 80]", "log p [c]", 4.43],
  ["CC1(C)COC(c2cccc(Nc3ncc(Br)c(NC4CC4)n3)c2)OC1 [Example 16]", "log p [c]", 3.9],
  ["FC(F)(F)CNc1nc(Nc2cccc(C3OCCO3)c2)ncc1Cl [Example 45]", "log p [c]", 2.73],
  ["Brc1cnc(Nc2cccc(C3OCCCO3)c2)nc1NC1CC1 [Example 15]", "log p [c]", 2.97],
  ["Clc1ccc(Nc2ncc(Cl)c(NC3CC3)n2)cc1C1OCCCO1 [Example 62]", "log p [c]", 3.47],
  ["C#CCNc1nc(Nc2cccc(C3OCCCO3)c2)ncc1Cl [Example 54]", "log p [c]", 2.48],
  ["CCOC1COC(c2cccc(Nc3ncc(Cl)c(NC4CC4)n3)c2)OC1 (stereo not drawn) [Example 125]", "log p [c]", 3.27]
]}

Next molecule, log p [c] to be filled in.
Incoming: Fill in the blank: the reported log p [c] of CCC1COC(c2cccc(Nc3ncc(Br)c(NC4CCC4)n3)c2)O1 (stereo not drawn) [Example 89] is ____.
Outgoing: 4.35
